pIC50 for assorted molecules
- measuredTarget: human B1 (Homo sapiens, UniProt P46663)
- Sequence (P46663 whole entry): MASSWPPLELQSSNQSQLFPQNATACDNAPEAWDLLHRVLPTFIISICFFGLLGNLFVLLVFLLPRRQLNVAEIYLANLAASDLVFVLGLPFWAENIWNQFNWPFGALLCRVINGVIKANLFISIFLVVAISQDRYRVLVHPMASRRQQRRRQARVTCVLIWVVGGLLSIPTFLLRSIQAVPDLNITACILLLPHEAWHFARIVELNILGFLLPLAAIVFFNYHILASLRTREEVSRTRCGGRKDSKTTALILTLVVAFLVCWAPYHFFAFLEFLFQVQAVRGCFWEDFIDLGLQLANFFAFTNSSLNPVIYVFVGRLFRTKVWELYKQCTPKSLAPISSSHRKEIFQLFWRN
- protocol: Calcium flux assay for Bradykinin B1 antagonist, CHO-K1 cell line expressing human B1
- cond: CHO-K1 cells expressing human B1, agonist Lys-(Des-Arg)-Bradykinin, read-out: Potency (IC50 value against human B1)
pIC50: −log10 of the molar value. Counter-ions that a name gives are not always drawn.

Solved entries:
Field pIC50 (entry COc1cc(C)c(S(=O)(=O)N(Cc2noc(C(=O)N3CCC(CCN4CCCC4)CC3)n2)C2CC2)c(C)c1 ) reads > 8.00

Input COc1cc(C)c(S(=O)(=O)N(Cc2cc(C(=O)N(C)Cc3ccc(CN4CCC(OC)C4)cc3)co2)C2CC2)c(C)c1 (stereo not shown) . Output pIC50: 7.00 to 8.00

The recorded pIC50 for CCN1CCN(CCNC(=O)c2coc(CN(C3CC3)S(=O)(=O)c3c(C)cc(OC)cc3C)c2)CC1 [Ex 113, trifluoroacetate] is 6.00 to 7.00

For this molecule ( COc1cc(C)c(S(=O)(=O)N(C)Cc2nc(C(=O)N3CCN(Cc4cccnc4)CC3)no2)c(C)c1 ), measured pIC50 is 6.00 to 7.00

Please fill in: pIC50 reported for COc1cc(C)c(S(=O)(=O)N(Cc2noc(C(=O)N3CCN(CCCN(C)C)CC3)n2)C2CC2)c(C)c1 = 7.00 to 8.00

response.value for COc1cc(C)c(S(=O)(=O)N(Cc2noc(C(=O)N(C)Cc3nnc(CN4CCCC4)s3)n2)C2CC2)c(C)c1 (field: pIC50) = > 8.00

// field: pIC50; key: COc1cc(C)c(S(=O)(=O)N(C)Cc2cc(C(=O)NCc3ccc(CN4CCCC4)cc3)co2)c(C)c1 ; value = 6.00 to 7.00

Lab note: COc1cc(C)c(S(=O)(=O)N(Cc2cc(C(=O)N3CCN(Cc4cccnc4)CC3)co2)C2CC2)c(C)c1 [Ex 111, trifluoroacetate] gave pIC50 of 6.00 to 7.00

Further cases:
GET /value?item= COc1cc(C)c(S(=O)(=O)N(Cc2nnc(C(=O)N3CCN(CCN4CCCC4)CC3)o2)C2CC2)c(C)c1 &field=pIC50 returns 7.00 to 8.00

# molecule CCc1cc(Br)ccc1S(=O)(=O)N(C)Cc1cc(C(=O)NCc2cccc(CN3CCCC3)c2)co1 ; its pIC50 = 6.00 to 7.00

###

- measuredTarget: human B1 (Homo sapiens, UniProt P46663)
- protocol: Calcium flux assay for Bradykinin B1 antagonist, CHO-K1 cell line expressing human B1
- cond: CHO-K1 cells expressing human B1, agonist Lys-(Des-Arg)-Bradykinin, read-out: Potency (IC50 value against human B1)
Counter-ions that a name gives are not always drawn.
measurementKind: IC50

Response field IC50 (human B1 (Homo sapiens, UniProt P46663)) for item COc1cc(C)c(S(=O)(=O)N(C)Cc2ccc(C(=O)N3CCN(C4CCN(C)CC4)CC3)o2)c(C)c1 [Ex 62] : 0.1 to 1 µM

COc1cc(C)c(S(=O)(=O)N(C)Cc2noc(C(=O)N3CCN(CC4CCN(C)CC4)CC3)n2)c(C)c1 [Ex 305, trifluoroacetate] tested on human B1 (Homo sapiens, UniProt P46663) gave IC50: < 0.01 µM

human B1 (Homo sapiens, UniProt P46663) data for COc1cc(C)c(S(=O)(=O)N(C)Cc2noc(C(=O)N3CCN(CCCN(C)C)CC3)n2)c(C)c1 [Ex 309] ; its IC50: 0.01 to 0.1 µM

Assay human B1 (Homo sapiens, UniProt P46663), sample COc1cc(C)c(S(=O)(=O)N(C)Cc2nc(C(=O)NCc3ccc(CN4CCCC4)cc3)co2)c(C)c1 [Ex 72] , IC50 read: 0.01 to 0.1 µM

Form field IC50 for item COc1cc(C)c(S(=O)(=O)N(C)Cc2cc(C(=O)N3CCN(C4CCN(C)CC4)CC3)no2)c(C)c1 [Ex 65] on human B1 (Homo sapiens, UniProt P46663): 0.1 to 1 µM

More entries:
Entry COc1cc(C)c(S(=O)(=O)N(C)Cc2nnc(C(=O)N3CCN(CC4CCN(C)CC4)CC3)s2)c(C)c1 [Ex 333] , tested on human B1 (Homo sapiens, UniProt P46663), has a reported IC50 of 0.1 to 1 µM

IC50 for human B1 (Homo sapiens, UniProt P46663) with input COc1cc(C)c(S(=O)(=O)N(C)Cc2cc(C(=O)N(C)Cc3ccc(CN4CC(O)C4)cc3)co2)c(C)c1 [Ex 128] equals 0.1 to 1 µM
